# Tested on: Staphylococcus aureus ATCC 29213 (MSSA)
# assay explanation: minimum inhibitory concentration; extreme values may be limits of the assay
Entries and their minimum inhibitory concentration

- compound: "CCS(=O)(=O)N(Cc1ccco1)Cc1cc2ccc(C)cc2nc1O"
  endpoint label: "minimum inhibitory concentration"
  result value: "> 50 µM"

Tell me minimum inhibitory concentration reported for `O=C(COc1cccc(F)c1)Nc1nc(-c2ccccn2)cs1`
> 50 µM

Tell me minimum inhibitory concentration reported for `Cc1cc(C)cc(COc2ccc3c(C)c(CCC(=O)O)c(=O)oc3c2C)c1`
> 50 µM

Tell me minimum inhibitory concentration reported for `CS(=O)(=O)N1CCC(Cn2nc(Cc3cccc4ccccc34)c3c(N)ncnc32)CC1`
> 50 µM

Tell me minimum inhibitory concentration reported for `Nc1cccnc1Nc1ccc(Cl)cc1`
> 50 µM

Tell me minimum inhibitory concentration reported for `CC(C)(C)c1ccc(N[C@@H]2CCCC[C@H]2NC(=O)c2ccco2)cc1`
> 50 µM

Tell me minimum inhibitory concentration reported for `O=C(C1CCN(c2nnnn2-c2ccccc2)CC1)N1CCc2ccccc2C1`
> 50 µM

Tell me minimum inhibitory concentration reported for O=C(C(Cc1c[nH]c2ccccc12)NS(=O)(=O)c1ccc(Cl)cc1)N1CCCCC1 (configuration not stated)
> 50 µM

---

# Test system: Staphylococcus aureus ATCC 29213 (MSSA)
# assay explanation: minimum inhibitory concentration; extreme values may be limits of the assay
endpoint label: minimum inhibitory concentration

Please review the following examples before continuing.
- compound: "Cc1ccc(S(=O)(=O)n2cc(-c3ccnc(N)c3)c3cc(Br)cnc32)cc1"
  minimum inhibitory concentration: "> 50 µM"
- compound: "CCc1nc2ccccc2n1CC(O)COc1cc(C)ccc1Cl (centres undefined)"
  minimum inhibitory concentration: "> 50 µM"
- compound: "CC(=O)NC[C@@H]1CN(c2ccc(N3CCOCC3)c(F)c2)C(=O)O1"
  minimum inhibitory concentration: "6.25 µM"

Tell me minimum inhibitory concentration reported for `N=C(N)c1ccc(OCCCCCOc2ccc(C(=N)N)cc2)cc1`
12.5 µM

Tell me minimum inhibitory concentration reported for `COc1ccc(Cl)cc1NC(=O)CN(C)C(=O)c1cnn(-c2ccccc2)n1`
> 50 µM

Tell me minimum inhibitory concentration reported for `Cc1cccc(C(=O)Nc2ccnc(N(C)C3CCN(CC(C)C)CC3)c2)c1`
> 50 µM

Tell me minimum inhibitory concentration reported for CC(C)(C)C(O)C(Oc1ccc(-c2ccccc2)cc1)n1cncn1 (centres undefined)
> 50 µM

Tell me minimum inhibitory concentration reported for `CCOc1ccc(-c2nc(NC(=O)CS(=O)(=O)c3ccccc3)sc2C)cc1`
> 50 µM

Tell me minimum inhibitory concentration reported for `O=C(NCc1nnc2n1CCCCC2)c1ccc(-c2ccc(F)cc2)o1`
> 50 µM

Tell me minimum inhibitory concentration reported for `O=C(Nc1ccc(F)c(-c2nc3cc(-c4ccccc4)cnc3[nH]2)c1)N1CCCC1`
> 50 µM

Tell me minimum inhibitory concentration reported for `Cc1c[nH]c(CCNC(=O)c2cc(-c3ccc(Cl)cc3)cs2)n1`
> 50 µM

Tell me minimum inhibitory concentration reported for `CCCCCCCCCCCCCCCCOP(=O)([O-])OCC[N+](C)(C)C`
> 50 µM

Tell me minimum inhibitory concentration reported for `COc1cc(C2=NCCN2)cc2cc(-c3ccc(C4=NCCN4)cc3)oc12`
> 50 µM

Tell me minimum inhibitory concentration reported for CCNC(=O)C(C)Nc1nc(-c2cccnc2)nc2sc(C)c(C)c12 (centres undefined)
> 50 µM
